This collection of values is drawn from patent US8889704B2.

Measured pIC50 of individual entries
- assayed.system: GST-tagged recombinant full-length human Pim-2 (Homo sapiens)
- Construct: GST-tagged recombinant full-length human Pim-2; GST
- protocol.summary: PIM-2 Assay (as Example A)
- condition: averaged IC50; 4 μM ATP, 1.0 μM PIM2tide, 1.5 nM Pim-2
Structures can show the parent of a compound that is named as a salt.
The quantity pIC50 is defined as the negative base-10 logarithm of the molar concentration.

Name the reported pIC50 value associated with the molecule CCOc1cc2nc(-c3nnc4ccc([C@H](N5CC[C@@H](CN)C5)C(F)(F)F)cn34)ccc2cc1F [Example 295, hydrochloride]
6.28

More entries:
Dear colleague, I am looking for the recorded pIC50 of the following molecule: Cc1nn(C)cc1-c1cc2nc(-c3nnc4ccc([C@@H](N5CC[C@H](N)C5)C(F)(F)F)cn34)ccc2cc1F [Example 205, dihydrochloride]
6.61

What does the record list as pIC50 for CO[C@@H](C)COc1ccc2ccc(-c3nnc4ccc([C@@H](N5CC[C@H](N)C5)C(F)(F)F)cn34)nc2c1 [Example 287, dihydrochloride] ?
6.75

Query: pIC50; subject: N[C@H]1CCN(C(c2ccc3nnc(-c4ccc5ccc(C6CC6)cc5n4)n3c2)C(F)(F)F)C1 (stereo partly drawn) [Example 3, dihydrochloride]
7.28

Which pIC50 value belongs to CC(C)Oc1cccc2ccc(-c3nnc4ccc([C@@H](N5C[C@@H](N)[C@H](O)C5)C(F)(F)F)cn34)nc12 [Example 146, dihydrochloride] ?
7.47

====

Counter-ions that a name gives are not always drawn.
Lab note: pIC50 readings collected with PIM-1 (Homo sapiens) for the following compounds.
Quick note: pIC50 means taking -log10 of the concentration in moles per liter.

Item CC(C)Oc1cc(F)cc2ccc(-c3nnc4ccc([C@H](N5CCC(C)(O)C5)C(F)(F)F)cn34)nc12 (single isomer, unassigned; diastereomer 1) [Example 202, hydrochloride] has what recorded pIC50?
8.18

Which pIC50 is reported for this compound? CCC1(N)CCN([C@H](c2ccc3nnc(-c4ccc5cccc(OC)c5n4)n3c2)C(F)(F)F)C1 (single isomer, unassigned; diastereomer 1) [Example 242, dihydrochloride]
8.38

Which pIC50 value is on record for CC(C)Oc1cc2nc(-c3nnc4ccc([C@@H](N5CC[C@H](N)C5)C(F)(F)F)cn34)ccc2cc1F [Example 119, hydrochloride] ?
9.68

Reported pIC50, compound COc1cc2nc(-c3nnc4ccc([C@H](N5CC[C@H](N)C5)C(F)(F)F)cn34)ccc2cc1F [Example 136, hydrochloride] : ____
9.06

Field request: pIC50 | item: CC(C)Oc1cccc2ccc(-c3nnc4ccc([C@@H](N5CC[C@](N)(CO)C5)C(F)(F)F)cn34)nc12 [Example 188, dihydrochloride]
9.52

Then there is this compound:
Which pIC50 reading was recorded for the compound CO[C@H](C)COc1ccc2ccc(-c3nnc4ccc([C@@H](N5CC[C@H](N)C5)C(F)(F)F)cn34)nc2c1 [Example 277, dihydrochloride] ?
9.55

====

- assayed.system: PIM-1 (Homo sapiens, UniProt P11309)
- Sequence (P11309 whole entry, species assumed): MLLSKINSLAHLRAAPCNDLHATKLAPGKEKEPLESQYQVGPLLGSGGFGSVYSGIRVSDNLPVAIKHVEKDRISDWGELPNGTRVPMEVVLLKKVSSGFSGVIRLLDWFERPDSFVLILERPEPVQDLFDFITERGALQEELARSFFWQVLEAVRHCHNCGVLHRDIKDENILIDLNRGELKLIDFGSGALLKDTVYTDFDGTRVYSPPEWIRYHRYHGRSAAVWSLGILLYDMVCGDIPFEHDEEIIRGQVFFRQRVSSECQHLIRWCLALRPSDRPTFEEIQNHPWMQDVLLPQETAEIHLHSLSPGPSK
pIC50: −log10 of the molar value. Structures can show the parent of a compound that is named as a salt.
# cutoff 9 applies to pIC50; >= gives true (1), < gives false (0)

In plain terms: is recorded pIC50 at least 9 for N[C@H]1CCN([C@H](c2ccc3nnc(-c4ccc5cc(F)cc(C6CC6)c5n4)n3c2)C(F)(F)F)C1 [Example 177, dihydrochloride] ?
true (1)

---
Given CCOc1cc2nc(-c3nnc4ccc([C@@H](N5CC[C@H](N)C5)C(F)(F)F)cn34)ccc2cc1F [Example 133, hydrochloride] , state whether its pIC50 is at least 9.
true (1)

Is the recorded value of pIC50 equal to or greater than 9 for this compound? COCC(C)(C)c1cccc2ccc(-c3nnc4ccc([C@@H](N5CC[C@H](N)C5)C(F)(F)F)cn34)nc12 [Example 105, dihydrochloride]
true (1)

====

Recorded IC50 by entry
- assayed.system: recombinant rat PIM-3 (Rattus norvegicus)
- protocol.summary: PIM-3 Assay (as Example A)
- condition: averaged IC50; 30 μM ATP, 3.75 μM PIM2tide, 0.5 nM PIM-3
Where a name gives a salt, the structure may show the parent alone.
Use nM as the unit, but write only the number.

Example entries begin here.
Provide the documented IC50 with recombinant rat PIM-3 (Rattus norvegicus) as the system for N[C@H]1CCN([C@H](c2ccc3nnc(-c4ccc5cc(F)cc(OC(F)F)c5n4)n3c2)C(F)(F)F)C1 [Example 228, dihydrochloride]
3.8

Form: Entry = CC(=O)OCCOc1cc2nc(-c3nnc4ccc([C@@H](N5CC[C@H](N)C5)C(F)(F)F)cn34)ccc2cc1F [Example 122, acetate hydrochloride] | System = recombinant rat PIM-3 (Rattus norvegicus) | IC50 = ____
0.7

New cases:
Observed IC50 on recombinant rat PIM-3 (Rattus norvegicus) for C[C@@H](c1ccc2nnc(-c3ccc4cccc(C(C)(C)C)c4n3)n2c1)N1CC[C@H](N)C1 [Example 308, trihydrochloride] , please.
0.4

# query: IC50 | item CC(C)(O)COc1ccc2ccc(-c3nnc4ccc([C@H](N5CC[C@](C)(N)C5)C(F)(F)F)cn34)nc2c1 [Example 297, dihydrochloride] | system: recombinant rat PIM-3 (Rattus norvegicus)
0.2

====

- assayed.system: GST-tagged recombinant full-length human Pim-2 (Homo sapiens)
- Construct: GST-tagged recombinant full-length human Pim-2; GST
- protocol.summary: PIM-2 Assay (as Example A)
- condition: averaged IC50; 4 μM ATP, 1.0 μM PIM2tide, 1.5 nM Pim-2
Where a name gives a salt, the structure may show the parent alone.
Entries and their pIC50 values follow.
The read-out pIC50 is expressed as -log10 of concentration in moles per litre.

Here's what some known entries look like.
Reported pIC50 for NC[C@H]1CCN(C(c2ccc3nnc(-c4ccc5cccc(OCC6CC6)c5n4)n3c2)C(F)(F)F)C1 (some centres unmarked) [Example 21, dihydrochloride] : what is it?
6.37

What value of pIC50 has been recorded for this entry: N[C@H]1CCN([C@H](c2ccc3nnc(-c4ccc5ccc(O[C@H]6CCC[C@@H]6O)cc5n4)n3c2)C(F)(F)F)C1 (single isomer, unassigned; diastereomer 1) [Example 319, di-hydrochloride]
6.95

More entries:
Entry under review: "C[C@]1(N)CCN([C@@H](c2ccc3nnc(-c4ccc5ccc(CCO)cc5n4)n3c2)C(F)(F)F)C1" . Reported pIC50?
6.71

====

- assayed.system: GST-tagged recombinant full-length human Pim-2 (Homo sapiens, UniProt Q9P1W9)
- Construct: GST-tagged recombinant full-length human Pim-2; GST
- Sequence (Q9P1W9 whole entry): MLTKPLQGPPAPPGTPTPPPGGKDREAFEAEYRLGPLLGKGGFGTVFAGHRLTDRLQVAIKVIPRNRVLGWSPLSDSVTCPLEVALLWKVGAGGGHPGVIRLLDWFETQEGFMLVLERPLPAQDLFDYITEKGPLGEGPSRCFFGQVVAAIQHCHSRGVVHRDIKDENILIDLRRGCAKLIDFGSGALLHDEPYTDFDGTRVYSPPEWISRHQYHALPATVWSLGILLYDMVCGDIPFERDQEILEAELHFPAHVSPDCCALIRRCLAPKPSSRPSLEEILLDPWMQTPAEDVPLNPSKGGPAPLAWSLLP
- protocol.summary: PIM-2 Assay (as Example A)
- condition: averaged IC50; 4 μM ATP, 1.0 μM PIM2tide, 1.5 nM Pim-2
Structures can show the parent of a compound that is named as a salt.
measurement.name: IC50 (nM)
Numeric answer only, unit nM assumed.

Look over these answered cases.
Reported IC50, compound Cn1cc(-c2ccc3ccc(-c4nnc5ccc([C@H](N6CC[C@H](N)C6)C(F)(F)F)cn45)nc3c2)cn1 (single isomer, unassigned) [Example 14, tri-hydrochloride] : ____
76

Which IC50 is listed for CC(c1ccc2nnc(-c3ccc4cccc(C(C)(C)C)c4n3)n2c1)N1CC[C@H](N)C1 (stereo partly drawn) [Example 17, trihydrochloride] ?
12.4

Then there is this compound:
Fill in the blank: the reported IC50 of Cn1cc(-c2ccc3ccc(-c4nnc5ccc([C@H](N6CC[C@](C)(N)C6)C(F)(F)F)cn45)nc3c2)cn1 [Example 222, dihydrochloride] is ____.
77

====

- assayed.system: recombinant rat PIM-3 (Rattus norvegicus)
- protocol.summary: PIM-3 Assay (as Example A)
- Assay type: biochemical
- condition: averaged IC50; 30 μM ATP, 3.75 μM PIM2tide, 0.5 nM PIM-3
Counter-ions that a name gives are not always drawn.
Exam item: assign Satisfied to entries whose IC50 is below 0.9 nM and Not satisfied to entries at or above 0.9 nM. Note that a value of exactly 0.9 nM receives Not satisfied.

Some entries whose results are on file:
Please state whether IC50 is below 0.9 nM for CC1(NC(=O)c2ccc3ccc(-c4nnc5ccc([C@@H](N6CC[C@@H](N)C6)C(F)(F)F)cn45)nc3c2)CC1 [Example 55, dihydrochloride]
Satisfied

In the record for "CCOc1cc2nc(-c3nnc4ccc([C@H](N5CC[C@](C)(N)C5)C(F)(F)F)cn34)ccc2cc1F" , is IC50 less than 0.9 nM?
Satisfied

Say whether its IC50 is strictly beneath 0.9 nM. Entry: N[C@H]1CCN(C(c2ccc3nnc(-c4ccc5cc(F)c(OCCOC(=O)c6ccccc6)cc5n4)n3c2)C(F)(F)F)C1 (stereo in doubt)
Not satisfied

Determine whether this compound shows IC50 lower than 0.9 nM (ties excluded): N[C@H]1CCN([C@H](c2ccc3nnc(-c4ccc5cccc(O)c5n4)n3c2)C(F)(F)F)C1 [Example 208, dihydrochloride]
Not satisfied

More entries:
Bench note: check whether CC(C)(O)COc1cccc2ccc(-c3nnc4ccc([C@@H](N5CC[C@@](C)(N)C5)C(F)(F)F)cn34)nc12 [Example 272, dihydrochloride] shows IC50 below 0.9 nM
Satisfied

Please check: IC50 for N[C@H]1CCN([C@H](c2ccc3nnc(-c4ccc5cc(F)cc(C6(CO)CC6)c5n4)n3c2)C(F)(F)F)C1 [Example 125, dihydrochloride] , strictly under 0.9 nM or not?
Satisfied
